Record form. Attribute: MIC50. Fill in for each entry.
Test system: Holdemania filiformis
Assay: Antimicrobial activity against Holdemania filiformis by Wadsworth agar dilution method
Format: functional
Express the result in mg/L but write the number alone.

Challenge: Any idea what its MIC50 is? The compound is `CN[C@H](CC(C)C)C(=O)N[C@H]1C(=O)N[C@@H](CC(N)=O)C(=O)N[C@H]2C(=O)N[C@H]3C(=O)N[C@H](C(=O)N[C@H](C(=O)O)c4cc(O)cc(O)c4-c4cc3ccc4O)[C@H](O)c3ccc(c(Cl)c3)Oc3cc2cc(c3O[C@@H]2O[C@H](CO)[C@@H](O)[C@H](O)[C@H]2O[C@H]2C[C@](C)(N)[C@H](O)[C@H](C)O2)Oc2ccc(cc2Cl)[C@H]1O`
Response given: 1

Challenge: Also check `NC[C@@H]1O[C@H](O[C@H]2[C@@H](O)[C@H](O[C@@H]3[C@@H](O)[C@H](N)C[C@H](N)[C@H]3O[C@H]3O[C@H](CN)[C@@H](O)[C@H](O)[C@H]3N)O[C@@H]2CO)[C@H](N)[C@@H](O)[C@@H]1O`
Response given: 128

Challenge: Also check `CO[C@H]1/C=C/O[C@@]2(C)Oc3c(C)c(O)c4c(O)c(c5c(nc6cc(C)ccn65)c4c3C2=O)NC(=O)/C(C)=C\C=C\[C@H](C)[C@H](O)[C@@H](C)[C@@H](O)[C@@H](C)[C@H](OC(C)=O)[C@@H]1C`
Response given: 0.5

Challenge: Also check CC(=O)Oc1ccccc1C(=O)Nc1ncc([N+](=O)[O-])s1 [NITAZOXANIDE]
Response given: 2
